test system: SNB-19 CNS; test: NCI-60 one-dose screen, 48 h; settings: 10 µM unless noted
Compounds without any hit were thinned out: in the full panel of roughly 83,000, 20% have a hit. Calls of active or inactive are those of the source. How the source made its calls: active means growth percent below 10; inactive means the rest.
Hi! Could you answer with just one of these? active, inactive

INPUT: Called result for Oc1c(Cl)cc(Cl)c2ccc(CN3CCCCC3)nc12
OUTPUT: inactive

INPUT: Called result for C[C@@H](Nc1c(C#N)cnc2ccc(-c3cnc(N)nc3)cc12)c1ccccc1
OUTPUT: inactive

INPUT: Called result for COc1ccc(CNS(=O)(=O)/N=C2\NC(=O)NC2=C(Cl)Cl)cc1
OUTPUT: inactive

INPUT: Called result for N#Cc1c(-c2ccc(Cl)cc2)nc(SCc2ccccc2)nc1N1CCNCC1
OUTPUT: inactive

INPUT: Called result for Cn1c(SCC(=O)c2cccs2)nc2ccccc2c1=O
OUTPUT: inactive

INPUT: Called result for Nc1cc(-c2c[nH]c3ccc(F)cc23)nc2cc(-c3c[nH]c4ccc(F)cc34)nn12
OUTPUT: inactive

INPUT: Called result for C#Cc1nc(C2=C(C)C(OC(C)=O)/C(=N/OC(C)=O)C2)cs1 (centres undefined)
OUTPUT: inactive

INPUT: Called result for O=C(CSc1nc2sc3c(c2c(=O)n1-c1ccc(Cl)cc1)CCCC3)NNC(=O)Nc1cccc(C(F)(F)F)c1
OUTPUT: inactive

INPUT: Called result for O=C(Nc1nc2ccc(O)cc2s1)c1cccc(C(F)(F)F)c1
OUTPUT: inactive

INPUT: Called result for COc1ccc([C@@H]2c3[nH]c4ccccc4c3CC3C(=O)N(C4CCN(Cc5c(F)cccc5F)CC4)CC(=O)N32)c(OC)c1 (some centres undefined)
OUTPUT: inactive

INPUT: Called result for Fc1ccc(-c2nc(C(Cl)Cl)nc3cc(-c4ccccc4)nn23)cc1
OUTPUT: active

INPUT: Called result for COc1cc(/C=C/C(=O)c2ccc(F)cc2)ccc1Oc1nc(NCCO)nc(N2CCOCC2)n1
OUTPUT: inactive

INPUT: Called result for CN(C)CCCNc1c2ccc(Cl)cc2nc2c1oc1ccccc12
OUTPUT: inactive

INPUT: Called result for C=CCSc1ccc2c(c1)C(N1CCNCC1)=Nc1ccccc1O2
OUTPUT: inactive

INPUT: Called result for Cc1ccc2ccc3ccc(C)nc3c2n1.Cc1ccc2ccc3ccc(C)nc3c2n1.Oc1c(Cl)cc(Cl)c2ccc(CN3CCCCC3)nc12.[Ru]
OUTPUT: active

INPUT: Called result for CC(=O)Oc1ccccc1C(=O)Nc1ccc(C(=O)/C=C/c2ccncc2)cc1
OUTPUT: inactive

INPUT: Called result for COc1ccc(-c2nc3ccc(-c4nnc(SCC(=O)Nc5ccc(C(=O)/C=C/c6ccc(Cl)cc6)cc5)o4)cc3[nH]2)cc1OC
OUTPUT: inactive

INPUT: Called result for CS(=O)(=O)c1ccc(-c2nc3ccccn3c2-c2nc3ccc([N+](=O)[O-])cc3[nH]2)cc1
OUTPUT: inactive

INPUT: Called result for C/C(=N\NC(N)=O)c1c(O)sc(=O)[nH]c1=O
OUTPUT: inactive

INPUT: Called result for O=C(N/N=C/c1ccc([N+](=O)[O-])s1)c1[nH]c2ccc(Br)cc2c1-c1ccccc1
OUTPUT: inactive

INPUT: Called result for COc1cc(/C=C/C(=O)c2cc(OC)c(OC)c(OC)c2)ccc1OCc1ccccc1
OUTPUT: inactive

INPUT: Called result for COc1ccc(/C=C2\SC(=Nc3cc(C)on3)NC2=O)cc1
OUTPUT: inactive

INPUT: Called result for Fc1ccc(-c2cc3nc(C(Cl)Cl)nc(-c4ccccc4)n3n2)cc1
OUTPUT: active

INPUT: Called result for COc1ccc(/C=C2\SC(=Nc3cc(C)[nH]n3)NC2=O)cc1
OUTPUT: inactive

INPUT: Called result for Cc1sc2c(c1C)c(=O)nc1c(-c3nc(-c4ccc(F)cc4)no3)n[nH]n12
OUTPUT: inactive

INPUT: Called result for COc1ccccc1/C=C/C=N/NC1=NC2C(S1)N(C)C(=O)N2C (centres undefined)
OUTPUT: inactive

INPUT: Called result for CN(C)CCCOc1c2ccc(Cl)cc2nc2c1oc1ccc(Cl)cc12
OUTPUT: inactive

INPUT: Called result for C#C[C@]1(O)CC[C@H]2[C@@H]3CC=C4c5sc(-c6ccc(F)cn6)nc5CC[C@]4(C)[C@H]3CC[C@@]21C
OUTPUT: inactive

INPUT: Called result for CCN(CC)c1ccc(C=O)c(OCc2cn(CC(=O)Nc3ccc(Cl)cc3)nn2)c1
OUTPUT: inactive

INPUT: Called result for Cc1ccc(/C=C/c2nn3c(-c4ccco4)nnc3s2)cc1C
OUTPUT: inactive

INPUT: Called result for c1ccc2c(NCCCN3CCOCC3)c3oc4ccccc4c3nc2c1
OUTPUT: active

INPUT: Called result for [Cl][Ru].c1ccc(-c2cccc(-c3ccccn3)n2)nc1.c1ccc(-c2ccnc3c2ccc2c(-c4ccccc4)ccnc23)cc1
OUTPUT: inactive

INPUT: Called result for CC(C)(C)Nc1nc2c(OCCc3ccccc3)cccn2c1-c1ccccc1Cl
OUTPUT: inactive

INPUT: Called result for CN1CCN(Cc2ccc(NC(=O)c3cncc(C#Cc4cnc5ccc(N6CCSCC6)nn45)c3)cc2C(F)(F)F)CC1
OUTPUT: active

INPUT: Called result for Cc1cc2nc3c4cc(Cl)ccc4n(CC(=S)NCCN(C)C)c3nc2cc1C
OUTPUT: active

INPUT: Called result for O=[N+]([O-])c1ccc(O)c2ncccc12
OUTPUT: inactive

INPUT: Called result for COc1cccc(-c2nn(-c3ccccc3)cc2-c2ccnc(N3CCN(C(=O)c4ccccc4)CC3)c2)c1
OUTPUT: inactive

INPUT: Called result for Cn1ccnc1C(=O)/C=C/c1ccc(NC(=O)Nc2ccc(F)cc2)cc1
OUTPUT: inactive

INPUT: Called result for CC(C)(C)Nc1nc2c(OCCc3ccccc3)cccn2c1-c1ccc(O)cc1
OUTPUT: inactive
